- Test System: κ receptor (Mus musculus)
- Construct: The isolated vas deference was filled with Krebes-Henseleit solution; from tissue; host or cells: isolated vas deferens of male ddy mouse
- Sequence (P33534 whole entry): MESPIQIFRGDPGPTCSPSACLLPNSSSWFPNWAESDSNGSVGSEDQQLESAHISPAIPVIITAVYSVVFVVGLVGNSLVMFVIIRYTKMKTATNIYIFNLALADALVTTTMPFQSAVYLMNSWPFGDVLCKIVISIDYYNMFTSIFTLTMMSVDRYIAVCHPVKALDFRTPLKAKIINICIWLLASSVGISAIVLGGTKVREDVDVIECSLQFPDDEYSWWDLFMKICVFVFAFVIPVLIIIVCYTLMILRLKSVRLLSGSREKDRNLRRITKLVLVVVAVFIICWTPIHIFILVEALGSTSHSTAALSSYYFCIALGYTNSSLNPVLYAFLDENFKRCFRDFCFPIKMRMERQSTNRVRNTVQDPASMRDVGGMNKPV
- Method Summary: Ke with norBNI in isolated mouse vas deference preparation
- Type: cell-based, mouse (male ddy)
- Measurement Setup: norBNI (κ)
- Description: A male ddy mouse was used in this test. […] Tissue contractions were recorded on a polygraph using an isometric transducer. Then after adequately washing with nutrient solution and the contraction reaction stabilized, naloxone, a μ […], NTI, a δ […], or norBNI, a κ […], were added and the test compound was again cumulatively added after roughly 20 minutes. The Ke value was calculated using the following calculation formula from the difference in the efficacies of both agonists. […]
Endpoint: Ke norBNI (nM)

CN(C(=O)/C=C/c1ccsc1)[C@H]1CC[C@@]2(O)[C@H]3Cc4ccc(O)c5c4[C@@]2(CCN3CC2CC2)[C@H]1O5	0.699
CN(C(=O)CC(=O)c1ccccc1)[C@@H]1CC[C@@]2(O)[C@H]3Cc4ccc(O)c5c4[C@@]2(CCN3CC2CC2)[C@H]1O5	0.657
CN(C(=O)OCc1ccccc1)[C@H]1CC[C@@]2(O)[C@H]3Cc4ccc(O)c5c4[C@@]2(CCN3CC2CC2)[C@H]1O5	0.905
Cc1cccc(/C=C/C(=O)N(C)[C@@H]2CC[C@@]3(O)[C@H]4Cc5ccc(O)c6c5[C@@]3(CCN4CC3CC3)[C@H]2O6)c1	1.95
CN(C(=O)/C=C/c1ccccc1)[C@@H]1CC[C@@]2(O)[C@H]3Cc4ccc(O)c5c4[C@@]2(CCN3CC2CC2)[C@H]1O5	0.652
CN(C(=O)/C=C/c1ccoc1)[C@@H]1CC[C@@]2(O)[C@H]3Cc4ccc(O)c5c4[C@@]2(CCN3CC2CC2)[C@H]1O5	0.164
CN(C(=O)CSc1ccccc1)[C@H]1CC[C@@]2(O)[C@H]3Cc4ccc(O)c5c4[C@@]2(CCN3CC2CC2)[C@H]1O5	0.416
CN(C(=O)/C=C/c1cccc([N+](=O)[O-])c1)[C@@H]1CC[C@@]2(O)[C@H]3Cc4ccc(O)c5c4[C@@]2(CCN3CC2CC2)[C@H]1O5	1.40
CN(C(=O)/C=C/c1cccc(F)c1)[C@H]1CC[C@@]2(O)[C@H]3Cc4ccc(O)c5c4[C@@]2(CCN3CC2CC2)[C@H]1O5	4.21
CN(C(=O)OCc1ccc([N+](=O)[O-])cc1)[C@H]1CC[C@@]2(O)[C@H]3Cc4ccc(O)c5c4[C@@]2(CCN3CC2CC2)[C@H]1O5	5.31
CN(C(=O)/C=C/c1ccoc1)[C@H]1CC[C@@]2(O)[C@H]3Cc4ccc(O)c5c4[C@@]2(CCN3CC2CC2)[C@H]1O5	0.85
CCCCCC(=O)N(C)[C@@H]1CC[C@@]2(O)[C@H]3Cc4ccc(O)c5c4[C@@]2(CCN3CC2CC2)[C@H]1O5	0.203
CN(C(=O)C#Cc1ccc(C(F)(F)F)cc1)[C@H]1CC[C@@]2(O)[C@H]3Cc4ccc(O)c5c4[C@@]2(CCN3CC2CC2)[C@H]1O5	1.20
CN(C(=O)Cc1ccc(Cl)c(Cl)c1)[C@@H]1CC[C@@]2(O)[C@H]3Cc4ccc(O)c5c4[C@@]2(CCN3CC2CC2)[C@H]1O5	0.21
CCCCOC(=O)N(C)[C@@H]1CC[C@@]2(O)[C@H]3Cc4ccc(O)c5c4[C@@]2(CCN3CC2CC2)[C@H]1O5	0.151
CN(C(=O)CC(=O)c1ccccc1)[C@H]1CC[C@@]2(O)[C@H]3Cc4ccc(O)c5c4[C@@]2(CCN3CC2CC2)[C@H]1O5	1.35
CN(C(=O)C#Cc1ccccc1)[C@H]1CC[C@@]2(O)[C@H]3Cc4ccc(O)c5c4[C@@]2(CCN3CC2CC2)[C@H]1O5	5.69
CN(C(=O)/C=C/c1ccco1)[C@@H]1CC[C@@]2(O)[C@H]3Cc4ccc(O)c5c4[C@@]2(CCN3CC2CC2)[C@H]1O5	0.198
CN(C(=O)/C=C/C1CCCCC1)[C@@H]1CC[C@@]2(O)[C@H]3Cc4ccc(O)c5c4[C@@]2(CCN3CC2CC2)[C@H]1O5	1.08
